- Assay details: Human HepG2 cell viability assay in 384 well format
- Assay type: toxicity, cell-based
- Design: dose 125 nL, time 70.5 hour; concentration not given beside the values
- Setup conditions: HepG2 cells, read-out: Inhibition
Listed compounds paired with reported cytotoxicity at 70.5 h
Report as a plain number; the unit % is understood.

Past entries and their recorded results:
| Compound | cytotoxicity at 70.5 h (%) |
| --- | --- |
| Cc1ccc(C)c(OCCN(C)C(=O)C2CCCN2C(N)=O)c1C (stereo unspecified) | -2.41 |
| Cc1nc(C)n(CC2CCCN(CCC(=O)NC3CCCCC3)C2)n1 (stereo unspecified) | -3.01 |
| CCO[C@@H]1C[C@H]2CN(S(=O)(=O)c3cccs3)CCN2C1 | -4.39 |
| CCc1nc(CC(=O)N2CCn3c(nnc3C(F)(F)F)C2)cs1 | -7.01 |
| C[C@H]1C[C@@H]2CCN(CC3CCOCC3)C[C@H]2O1 | -7.97 |
| CCCc1n[nH]c(C2CN(CC(=O)N(C)Cc3ccco3)CCO2)n1 (stereo unspecified) | -6.63 |

Cc1cccc(OC2CCN(c3ccc(C#N)cn3)CC2)n1 yielded cytotoxicity at 70.5 h of -1.77

O=C(c1c[nH]cn1)N1CCC(F)(F)C2(CCN(c3ncccn3)C2)C1 (stereo unspecified) yielded cytotoxicity at 70.5 h of -5.46

CCN(Cc1ccncc1)C(=O)c1cn(CCC2CCCCC2)nn1 yielded cytotoxicity at 70.5 h of -16

c1csc(-c2noc(CN3CCc4c(ncn4C4CC4)C3)n2)c1 yielded cytotoxicity at 70.5 h of -14.5

CCn1cc(CN2CCCN(C(=O)c3sccc3C#N)CC2)cn1 yielded cytotoxicity at 70.5 h of 37.5

Cc1cnn(C2CN(Cc3ccc4c(c3)OCCO4)C2)c1 yielded cytotoxicity at 70.5 h of -10.6

CO[C@H]1CCN(Cc2cnn(C)c2)[C@@H]2CN(Cc3ccncc3)C[C@H]12 yielded cytotoxicity at 70.5 h of -6.62

COc1ccc(C)cc1C(=O)N1C[C@@H](CN(C)CCO)[C@@H](CO)C1 yielded cytotoxicity at 70.5 h of 0.0463

O=c1oc(-c2ccc(F)cc2)nn1CN1CCSCC1 yielded cytotoxicity at 70.5 h of -15

CCCc1noc(CCC(=O)Nc2cc(C(F)(F)F)c[nH]c2=O)n1 yielded cytotoxicity at 70.5 h of -6.41

CNS(=O)(=O)c1cc(C)c2[nH]c(=O)cc(C)c2c1 yielded cytotoxicity at 70.5 h of -16.4
